Provenance of the data: the supplement of paper PMC9112550

# Test system: Escherichia coli TOP10
# assay.text: shrunken log2 fold change of peptide-encoding DNA abundance (4.5 h post-induction vs induction); higher = less antimicrobial activity (less host growth inhibition)
# conditions: time post-induction: 4.5 h; library: site-saturation at positions 5, 18, 19, 20
Note to self: values exactly at -0.02 are Yes. So shrunken log2 fold change at or above -0.02 is Yes, below is No.

>  <biosequence>
RRIRLRPPRLPRPRPRPNHHPRP

>  <answer.label>
No

$$$$
>  <biosequence>
RRIRERPPRLPRPRPRPITAPRP

>  <answer.label>
No

$$$$
>  <biosequence>
RRIRVRPPRLPRPRPRPTACPRP

>  <answer.label>
No

$$$$
>  <biosequence>
RRIRARPPRLPRPRPRPNGFPRP

>  <answer.label>
Yes

$$$$
>  <biosequence>
RRIRLRPPRLPRPRPRPKRSPRP

>  <answer.label>
Yes

$$$$
>  <biosequence>
RRIRIRPPRLPRPRPRPNFLPRP

>  <answer.label>
No

$$$$
>  <biosequence>
RRIRPRPPRLPRPRPRPFWHPRP

>  <answer.label>
Yes

$$$$
>  <biosequence>
RRIRVRPPRLPRPRPRPLLYPRP

>  <answer.label>
No

$$$$
>  <biosequence>
RRIRCRPPRLPRPRPRPGNEPRP

>  <answer.label>
No

$$$$
>  <biosequence>
RRIRVRPPRLPRPRPRPAMQPRP

>  <answer.label>
Yes

$$$$
>  <biosequence>
RRIRHRPPRLPRPRPRPYCLPRP

>  <answer.label>
No

$$$$
>  <biosequence>
RRIRVRPPRLPRPRPRPNVIPRP

>  <answer.label>
No

$$$$
>  <biosequence>
RRIRVRPPRLPRPRPRPGNTPRP

>  <answer.label>
No

$$$$
>  <biosequence>
RRIRCRPPRLPRPRPRPVLGPRP

>  <answer.label>
Yes

$$$$
>  <biosequence>
RRIRKRPPRLPRPRPRPIRAPRP

>  <answer.label>
Yes

$$$$

* * *

# Test system: Escherichia coli TOP10
# assay.text: shrunken log2 fold change of peptide-encoding DNA abundance (4.5 h post-induction vs induction); higher = less antimicrobial activity (less host growth inhibition)
# conditions: time post-induction: 4.5 h; library: site-saturation at positions 5, 18, 19, 20
Here the recorded shrunken log2 fold change is given for each entry.
measure.name: shrunken log2 fold change

>  <biosequence>
RRIRCRPPRLPRPRPRPFRNPRP

>  <target.or.system>
Escherichia coli TOP10

>  <readout.number>
-0.0491

$$$$
>  <biosequence>
RRIRYRPPRLPRPRPRPYFPPRP

>  <target.or.system>
Escherichia coli TOP10

>  <readout.number>
-0.702

$$$$
>  <biosequence>
RRIRIRPPRLPRPRPRPRKPPRP

>  <target.or.system>
Escherichia coli TOP10

>  <readout.number>
-0.0479

$$$$
>  <biosequence>
RRIRERPPRLPRPRPRPMYPPRP

>  <target.or.system>
Escherichia coli TOP10

>  <readout.number>
-0.0412

$$$$
>  <biosequence>
RRIRNRPPRLPRPRPRPGAGPRP

>  <target.or.system>
Escherichia coli TOP10

>  <readout.number>
0.234

$$$$
>  <biosequence>
RRIRERPPRLPRPRPRPISAPRP

>  <target.or.system>
Escherichia coli TOP10

>  <readout.number>
-0.214

$$$$
>  <biosequence>
RRIRFRPPRLPRPRPRPSICPRP

>  <target.or.system>
Escherichia coli TOP10

>  <readout.number>
-0.636

$$$$
>  <biosequence>
RRIRKRPPRLPRPRPRPYLWPRP

>  <target.or.system>
Escherichia coli TOP10

>  <readout.number>
0.125

$$$$
>  <biosequence>
RRIRIRPPRLPRPRPRPTELPRP

>  <target.or.system>
Escherichia coli TOP10

>  <readout.number>
-0.0944

$$$$
>  <biosequence>
RRIRIRPPRLPRPRPRPTVIPRP

>  <target.or.system>
Escherichia coli TOP10

>  <readout.number>
-0.108

$$$$
>  <biosequence>
RRIRNRPPRLPRPRPRPYIFPRP

>  <target.or.system>
Escherichia coli TOP10

>  <readout.number>
-0.327

$$$$
>  <biosequence>
RRIRFRPPRLPRPRPRPQKGPRP

>  <target.or.system>
Escherichia coli TOP10

>  <readout.number>
0.107

$$$$
>  <biosequence>
RRIRRRPPRLPRPRPRPPENPRP

>  <target.or.system>
Escherichia coli TOP10

>  <readout.number>
0.615

$$$$
>  <biosequence>
RRIRGRPPRLPRPRPRPWCYPRP

>  <target.or.system>
Escherichia coli TOP10

>  <readout.number>
0.0576

$$$$
>  <biosequence>
RRIRIRPPRLPRPRPRPRRIPRP

>  <target.or.system>
Escherichia coli TOP10

>  <readout.number>
-0.677

$$$$
>  <biosequence>
RRIRQRPPRLPRPRPRPDIYPRP

>  <target.or.system>
Escherichia coli TOP10

>  <readout.number>
-0.284

$$$$
>  <biosequence>
RRIRERPPRLPRPRPRPPYSPRP

>  <target.or.system>
Escherichia coli TOP10

>  <readout.number>
-0.102

$$$$
>  <biosequence>
RRIRGRPPRLPRPRPRPMCCPRP

>  <target.or.system>
Escherichia coli TOP10

>  <readout.number>
0.164

$$$$
>  <biosequence>
RRIRYRPPRLPRPRPRPMHSPRP

>  <target.or.system>
Escherichia coli TOP10

>  <readout.number>
-1.02

$$$$
>  <biosequence>
RRIRYRPPRLPRPRPRPTHNPRP

>  <target.or.system>
Escherichia coli TOP10

>  <readout.number>
-0.702

$$$$
>  <biosequence>
RRIRWRPPRLPRPRPRPCYTPRP

>  <target.or.system>
Escherichia coli TOP10

>  <readout.number>
-0.382

$$$$
>  <biosequence>
RRIRCRPPRLPRPRPRPLKDPRP

>  <target.or.system>
Escherichia coli TOP10

>  <readout.number>
-0.0917

$$$$
>  <biosequence>
RRIRARPPRLPRPRPRPCKEPRP

>  <target.or.system>
Escherichia coli TOP10

>  <readout.number>
0.000506

$$$$
>  <biosequence>
RRIRYRPPRLPRPRPRPFLIPRP

>  <target.or.system>
Escherichia coli TOP10

>  <readout.number>
-1.15

$$$$
>  <biosequence>
RRIRTRPPRLPRPRPRPDNAPRP

>  <target.or.system>
Escherichia coli TOP10

>  <readout.number>
-0.223

$$$$
>  <biosequence>
RRIRMRPPRLPRPRPRPDLQPRP

>  <target.or.system>
Escherichia coli TOP10

>  <readout.number>
0.461

$$$$
>  <biosequence>
RRIRHRPPRLPRPRPRPIVDPRP

>  <target.or.system>
Escherichia coli TOP10

>  <readout.number>
0.0237

$$$$
>  <biosequence>
RRIRPRPPRLPRPRPRPQILPRP

>  <target.or.system>
Escherichia coli TOP10

>  <readout.number>
-0.172

$$$$
>  <biosequence>
RRIRMRPPRLPRPRPRPDLGPRP

>  <target.or.system>
Escherichia coli TOP10

>  <readout.number>
0.11

$$$$
>  <biosequence>
RRIRRRPPRLPRPRPRPMDPPRP

>  <target.or.system>
Escherichia coli TOP10

>  <readout.number>
0.139

$$$$
>  <biosequence>
RRIRCRPPRLPRPRPRPSPCPRP

>  <target.or.system>
Escherichia coli TOP10

>  <readout.number>
-0.0417

$$$$
>  <biosequence>
RRIRSRPPRLPRPRPRPKWGPRP

>  <target.or.system>
Escherichia coli TOP10

>  <readout.number>
0.228

$$$$
>  <biosequence>
RRIRQRPPRLPRPRPRPRAWPRP

>  <target.or.system>
Escherichia coli TOP10

>  <readout.number>
0.123

$$$$
>  <biosequence>
RRIRTRPPRLPRPRPRPPIVPRP

>  <target.or.system>
Escherichia coli TOP10

>  <readout.number>
-0.175

$$$$
>  <biosequence>
RRIRTRPPRLPRPRPRPCDGPRP

>  <target.or.system>
Escherichia coli TOP10

>  <readout.number>
0.134

$$$$
>  <biosequence>
RRIRWRPPRLPRPRPRPNAVPRP

>  <target.or.system>
Escherichia coli TOP10

>  <readout.number>
0.259

$$$$
>  <biosequence>
RRIRPRPPRLPRPRPRPFELPRP

>  <target.or.system>
Escherichia coli TOP10

>  <readout.number>
-0.284

$$$$
>  <biosequence>
RRIRMRPPRLPRPRPRPQQIPRP

>  <target.or.system>
Escherichia coli TOP10

>  <readout.number>
0.0607

$$$$
>  <biosequence>
RRIRCRPPRLPRPRPRPGLEPRP

>  <target.or.system>
Escherichia coli TOP10

>  <readout.number>
0.203

$$$$
>  <biosequence>
RRIRGRPPRLPRPRPRPEPVPRP

>  <target.or.system>
Escherichia coli TOP10

>  <readout.number>
0.806

$$$$
>  <biosequence>
RRIRERPPRLPRPRPRPQKWPRP

>  <target.or.system>
Escherichia coli TOP10

>  <readout.number>
-0.473

$$$$
>  <biosequence>
RRIRSRPPRLPRPRPRPTSFPRP

>  <target.or.system>
Escherichia coli TOP10

>  <readout.number>
-0.189

$$$$
>  <biosequence>
RRIRTRPPRLPRPRPRPHQWPRP

>  <target.or.system>
Escherichia coli TOP10

>  <readout.number>
-0.196

$$$$
>  <biosequence>
RRIRQRPPRLPRPRPRPMSRPRP

>  <target.or.system>
Escherichia coli TOP10

>  <readout.number>
-0.0221

$$$$
>  <biosequence>
RRIRWRPPRLPRPRPRPWIFPRP

>  <target.or.system>
Escherichia coli TOP10

>  <readout.number>
-0.679

$$$$
>  <biosequence>
RRIRSRPPRLPRPRPRPLGTPRP

>  <target.or.system>
Escherichia coli TOP10

>  <readout.number>
-0.216

$$$$
>  <biosequence>
RRIRARPPRLPRPRPRPCISPRP

>  <target.or.system>
Escherichia coli TOP10

>  <readout.number>
0.0706

$$$$
>  <biosequence>
RRIRPRPPRLPRPRPRPVPSPRP

>  <target.or.system>
Escherichia coli TOP10

>  <readout.number>
0.448

$$$$
>  <biosequence>
RRIRRRPPRLPRPRPRPFKWPRP

>  <target.or.system>
Escherichia coli TOP10

>  <readout.number>
-0.157

$$$$
>  <biosequence>
RRIRHRPPRLPRPRPRPMLIPRP

>  <target.or.system>
Escherichia coli TOP10

>  <readout.number>
-0.824

$$$$
>  <biosequence>
RRIRARPPRLPRPRPRPRMGPRP

>  <target.or.system>
Escherichia coli TOP10

>  <readout.number>
0.692

$$$$
>  <biosequence>
RRIRGRPPRLPRPRPRPDGLPRP

>  <target.or.system>
Escherichia coli TOP10

>  <readout.number>
0.053

$$$$
>  <biosequence>
RRIRFRPPRLPRPRPRPIMYPRP

>  <target.or.system>
Escherichia coli TOP10

>  <readout.number>
-0.33

$$$$
>  <biosequence>
RRIRMRPPRLPRPRPRPIQMPRP

>  <target.or.system>
Escherichia coli TOP10

>  <readout.number>
-0.0558

$$$$
>  <biosequence>
RRIRARPPRLPRPRPRPKQEPRP

>  <target.or.system>
Escherichia coli TOP10

>  <readout.number>
0.254

$$$$
>  <biosequence>
RRIRSRPPRLPRPRPRPRQCPRP

>  <target.or.system>
Escherichia coli TOP10

>  <readout.number>
0.159

$$$$
>  <biosequence>
RRIRYRPPRLPRPRPRPWNTPRP

>  <target.or.system>
Escherichia coli TOP10

>  <readout.number>
-0.384

$$$$
>  <biosequence>
RRIRLRPPRLPRPRPRPQEQPRP

>  <target.or.system>
Escherichia coli TOP10

>  <readout.number>
-0.00233

$$$$
>  <biosequence>
RRIRIRPPRLPRPRPRPIAAPRP

>  <target.or.system>
Escherichia coli TOP10

>  <readout.number>
0.0481

$$$$
>  <biosequence>
RRIRMRPPRLPRPRPRPETQPRP

>  <target.or.system>
Escherichia coli TOP10

>  <readout.number>
0.359

$$$$
>  <biosequence>
RRIRMRPPRLPRPRPRPGEDPRP

>  <target.or.system>
Escherichia coli TOP10

>  <readout.number>
0.118

$$$$
>  <biosequence>
RRIRKRPPRLPRPRPRPMCVPRP

>  <target.or.system>
Escherichia coli TOP10

>  <readout.number>
0.208

$$$$
>  <biosequence>
RRIRSRPPRLPRPRPRPVKPPRP

>  <target.or.system>
Escherichia coli TOP10;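 note: peptides expressed intracellularly from a pBAD plasmid library in pooled LB shake-flask culture, induced with 0.3% L-arabinose, DNA abundance read by NGS, three biological replicates, DESeq2 with apeglm shrinkage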

>  <readout.number>
0.132

$$$$
